- measurement.notes: rate of dissolution in H2O at 25° C.
- Type: physicochemical
- experimental.setup: H2O, 25° C.; within the time printed in the same cell (see E3)
Reported Rate of dissolution in H2O at 25° C.: amount dissolved values for a set of compounds
value.kind: Rate of dissolution in H2O at 25° C.: amount dissolved

1) C=C1C[C@@]23CC[C@H]4[C@@](C)(CCC[C@@]4(C)C(=O)O[C@@H]4O[C@H](CO)[C@@H](O)[C@H](O)[C@H]4O)[C@@H]2CC[C@]1(O[C@@H]1O[C@H](CO)[C@@H](O)[C@H](O)[C@H]1O[C@@H]1O[C@H](CO)[C@@H](O)[C@H](O)[C@H]1O)C3 [Form 4, stevioside]; 40.0% in
2) C=C1C[C@@]23CC[C@H]4[C@@](C)(CCC[C@@]4(C)C(=O)O[C@@H]4O[C@H](CO)[C@@H](O)[C@H](O)[C@H]4O)[C@@H]2CC[C@]1(O[C@@H]1O[C@H](CO)[C@@H](O)[C@H](O)[C@H]1O[C@@H]1O[C@H](CO)[C@@H](O)[C@H](O)[C@H]1O)C3 [Form 2 A, stevioside]; <0.6% in
3) C=C1C[C@@]23CC[C@H]4[C@@](C)(CCC[C@@]4(C)C(=O)O[C@@H]4O[C@H](CO)[C@@H](O)[C@H](O)[C@H]4O)[C@@H]2CC[C@]1(O[C@@H]1O[C@H](CO)[C@@H](O)[C@H](O)[C@H]1O[C@@H]1O[C@H](CO)[C@@H](O)[C@H](O)[C@H]1O)C3 [Form 2B, stevioside]; 10.0% in
4) C=C1C[C@@]23CC[C@H]4[C@@](C)(CCC[C@@]4(C)C(=O)O[C@@H]4O[C@H](CO)[C@@H](O)[C@H](O)[C@H]4O)[C@@H]2CC[C@]1(O[C@@H]1O[C@H](CO)[C@@H](O)[C@H](O)[C@H]1O[C@@H]1O[C@H](CO)[C@@H](O)[C@H](O)[C@H]1O)C3 [Form 1, stevioside]; <0.075% in

---

- measurement.notes: moisture content (Karl Fischer analysis)
- Format: physicochemical
value.kind: Moisture content

1) C=C1C[C@@]23CC[C@H]4[C@@](C)(CCC[C@@]4(C)C(=O)O[C@@H]4O[C@H](CO)[C@@H](O)[C@H](O)[C@H]4O)[C@@H]2CC[C@]1(O[C@@H]1O[C@H](CO)[C@@H](O)[C@H](O)[C@H]1O[C@@H]1O[C@H](CO)[C@@H](O)[C@H](O)[C@H]1O)C3 [Form 1, stevioside]; >5%
2) C=C1C[C@@]23CC[C@H]4[C@@](C)(CCC[C@@]4(C)C(=O)O[C@@H]4O[C@H](CO)[C@@H](O)[C@H](O)[C@H]4O)[C@@H]2CC[C@]1(O[C@@H]1O[C@H](CO)[C@@H](O)[C@H](O)[C@H]1O[C@@H]1O[C@H](CO)[C@@H](O)[C@H](O)[C@H]1O)C3 [Form 2B, stevioside]; <4%
3) C=C1C[C@@]23CC[C@H]4[C@@](C)(CCC[C@@]4(C)C(=O)O[C@@H]4O[C@H](CO)[C@@H](O)[C@H](O)[C@H]4O)[C@@H]2CC[C@]1(O[C@@H]1O[C@H](CO)[C@@H](O)[C@H](O)[C@H]1O[C@@H]1O[C@H](CO)[C@@H](O)[C@H](O)[C@H]1O)C3 [Form 2 A, stevioside]; <3%
4) C=C1C[C@@]23CC[C@H]4[C@@](C)(CCC[C@@]4(C)C(=O)O[C@@H]4O[C@H](CO)[C@@H](O)[C@H](O)[C@H]4O)[C@@H]2CC[C@]1(O[C@@H]1O[C@H](CO)[C@@H](O)[C@H](O)[C@H]1O[C@@H]1O[C@H](CO)[C@@H](O)[C@H](O)[C@H]1O)C3 [Form 4, stevioside]; ~3%
